Data credit: PubChem BioAssay (NCI)

Reported growth values follow for various molecules
- System: CCRF-CEM leukemia
- procedureText: NCI-60 one-dose screen, 48 h (100 = growth as untreated, 0 = no growth, -100 = all killed)
- studyConditions: 10 µM unless noted
- Procedure: Growth inhibition of the CCRF-CEM human tumor cell line is measured as a screen for anti-cancer activity. Cells are grown in 96 well plates and exposed to the test compound for 48 hours. Compounds are tested at a single concentration, which is 10^-5 M for most compounds. The reported endpoint is percent growth (GI% or GIPRCNT), where numbers from 0 - 100% represent growth inhibition, and numbers from -100% - 0 represent cell death. For example, a value of 40 represents 60% growth inhibition. […]
About 83,000 compounds went through this panel and 20% of them were active in at least one assay; those are over-represented in the sample as a whole.
Expressed in %, but write only the number.

Reference set, count: 4
COc1cc(OC)c(/C=C/c2cc[n+](C)c3ccccc23)c(OC)c1
7.13
O=C(Nc1ccc(F)cc1)Nc1ccc(CCO)cc1
107
COC1/C=C\OC2(C)Oc3c(C)c(O)c4c(O)c(c(CN(C)CCO)c(O)c4c3C2=O)NC(=O)/C(C)=C\C=C/C(C)C(O)C(C)C(O)C(C)C(OC(C)=O)C1C (stereo not given)
98.3
Oc1ccc2c(=S)cc(-c3ccc(Br)cc3)oc2c1O
5.37

Reported growth (CCRF-CEM leukemia) for entry `Nc1nc(-c2ccc(F)cc2)cc(-c2cnn(-c3ccccc3)n2)n1` is 103
